- experimental target: UniProt:Q96T25
- measurement notes: secondary screening: ZIC5 protein quantified by anti-ZIC5 immunostaining and imaging cytometer in A375 cells overexpressing ZIC5
- condition label: A-375, read-out: ZIC5 Protein Amount (Relative Value)
Collected remaining activity at 5 µM values appear next to each entry.
assay endpoint: remaining activity at 5 µM (%)

structure as smiles: C[C@@H]1O[C@@H](O[C@H]2CC[C@]3(C=O)[C@H]4CC[C@]5(C)[C@@H](c6ccc(=O)oc6)CC[C@]5(O)[C@@H]4CC[C@]3(O)C2)[C@H](O)[C@H](O)[C@H]1O[C@@H]1O[C@H](CO)[C@@H](O)[C@H](O)[C@H]1O
assay endpoint: remaining activity at 5 µM
measured value: 57.1
//
structure as smiles: COc1cc(O)c2c(c1)/C=C/C[C@H](O)[C@H](O)C(=O)/C=C\C[C@H](C)OC2=O
assay endpoint: remaining activity at 5 µM
measured value: 72.8
//
structure as smiles: CCCCCCCCCCCCC/C=C/[C@H](O)[C@H](N)CO
assay endpoint: remaining activity at 5 µM
measured value: 62.6
//
structure as smiles: C[C@@H]1O[C@@H](O[C@@H]2C=C3CC[C@@H]4[C@H](CC[C@]5(C)[C@@H](c6ccc(=O)oc6)CC[C@]45O)[C@@]3(C)CC2)[C@H](O)[C@H](O)[C@H]1O
assay endpoint: remaining activity at 5 µM
measured value: 50

----------
- experimental target: ZIC5 protein (Homo sapiens)
- measurement notes: secondary screening: ZIC5 protein quantified by anti-ZIC5 immunostaining and imaging cytometer in A375 cells overexpressing ZIC5
- condition label: A-375, read-out: ZIC5 Protein Amount (Relative Value)
Collected remaining activity at 0.1 µM values appear next to each entry.
assay endpoint: remaining activity at 0.1 µM (%)

compound: CCCCCCCCCCCCC/C=C/[C@H](O)[C@H](N)CO
assay endpoint: remaining activity at 0.1 µM
measured value: 108

compound: C[C@@H]1O[C@@H](O[C@H]2CC[C@]3(C=O)[C@H]4CC[C@]5(C)[C@@H](c6ccc(=O)oc6)CC[C@]5(O)[C@@H]4CC[C@]3(O)C2)[C@H](O)[C@H](O)[C@H]1O[C@@H]1O[C@H](CO)[C@@H](O)[C@H](O)[C@H]1O
assay endpoint: remaining activity at 0.1 µM
measured value: 76.8

compound: C=C(C)[C@H]1O[C@H]2CC[C@@]3(C)[C@@](O)(CC[C@H]4C5OC(C)(C)[C@H]6C[C@@H]7C(=C)Cc8c(Cl)cc9[nH]c(c5c9c8[C@@]76O)[C@@]43C)[C@]23O[C@@H]3[C@H]1O (some centres unmarked)
assay endpoint: remaining activity at 0.1 µM
measured value: 111

compound: CC(=O)O[C@H]1[C@H]2O[C@@]23[C@@H]2CC[C@]4(O)C[C@@H](O)CC[C@]4(C)[C@H]2CC[C@]3(C)[C@H]1c1ccc(=O)oc1
assay endpoint: remaining activity at 0.1 µM
measured value: 88.2

compound: CC(=O)O[C@H]1C[C@]2(O)[C@@H]3CC[C@@H]4C[C@@H](O)CC[C@]4(C)[C@H]3CC[C@]2(C)[C@H]1c1ccc(=O)oc1
assay endpoint: remaining activity at 0.1 µM
measured value: 103

----------
Collected remaining activity at 1 µM values appear next to each entry.
- experimental target: UniProt Q96T25
- Sequence (Q96T25 1-639): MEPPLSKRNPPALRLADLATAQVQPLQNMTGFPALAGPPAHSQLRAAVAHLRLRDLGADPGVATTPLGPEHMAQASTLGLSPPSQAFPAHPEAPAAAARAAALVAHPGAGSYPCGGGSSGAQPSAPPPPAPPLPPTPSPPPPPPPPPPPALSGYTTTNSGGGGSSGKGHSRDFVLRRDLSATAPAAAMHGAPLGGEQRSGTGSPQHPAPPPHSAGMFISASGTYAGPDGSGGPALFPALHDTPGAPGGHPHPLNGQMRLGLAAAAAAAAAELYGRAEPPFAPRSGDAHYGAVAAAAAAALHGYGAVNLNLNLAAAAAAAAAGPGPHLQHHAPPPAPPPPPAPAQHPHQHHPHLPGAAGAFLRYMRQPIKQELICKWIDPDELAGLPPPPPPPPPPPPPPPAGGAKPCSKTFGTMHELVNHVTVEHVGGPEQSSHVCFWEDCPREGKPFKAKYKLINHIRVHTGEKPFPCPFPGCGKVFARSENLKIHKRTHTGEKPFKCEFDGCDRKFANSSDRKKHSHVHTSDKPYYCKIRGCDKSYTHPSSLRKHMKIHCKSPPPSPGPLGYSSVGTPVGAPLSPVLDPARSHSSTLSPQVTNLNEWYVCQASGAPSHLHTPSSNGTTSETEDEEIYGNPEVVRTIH
- measurement notes: secondary screening: ZIC5 protein quantified by anti-ZIC5 immunostaining and imaging cytometer in A375 cells overexpressing ZIC5;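 note: compounds added at 0.1, 1, 5 or 10 µM to A375 cells overexpressing ZIC5 without a fusion tag, cells fixed the next day, ND means cells died before measurement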
- condition label: A-375, read-out: ZIC5 Protein Amount (Relative Value)

structure as smiles: CC(=O)O[C@H]1[C@H]2O[C@@]23[C@@H]2CC[C@]4(O)C[C@@H](O)CC[C@]4(C)[C@H]2CC[C@]3(C)[C@H]1c1ccc(=O)oc1
unit label: %
remaining activity at 1 µM: 90.8

structure as smiles: C[C@@H]1O[C@@H](O[C@@H]2C=C3CC[C@@H]4[C@H](CC[C@]5(C)[C@@H](c6ccc(=O)oc6)CC[C@]45O)[C@@]3(C)CC2)[C@H](O)[C@H](O)[C@H]1O
unit label: %
remaining activity at 1 µM: 42.1

structure as smiles: C[C@@H]1O[C@@H](O[C@H]2CC[C@]3(C=O)[C@H]4CC[C@]5(C)[C@@H](c6ccc(=O)oc6)CC[C@]5(O)[C@@H]4CC[C@]3(O)C2)[C@H](O)[C@H](O)[C@H]1O[C@@H]1O[C@H](CO)[C@@H](O)[C@H](O)[C@H]1O
unit label: %
remaining activity at 1 µM: 72.5
